Measurement target: T1, purified recombinant human VEGF165 (human, UniProt P15692 27-191, glycosylated)
T1 construct: mature; Bought from Calbiochem; also called VEGF protein (Calbiochem); homodimeric VEGF protein
T1 sequence (P15692 other isoform, or with tags, fused parts or gaps limits assumed): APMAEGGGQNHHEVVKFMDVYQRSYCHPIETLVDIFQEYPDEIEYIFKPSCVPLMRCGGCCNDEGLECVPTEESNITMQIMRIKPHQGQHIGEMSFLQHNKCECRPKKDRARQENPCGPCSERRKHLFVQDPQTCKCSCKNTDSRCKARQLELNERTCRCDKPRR
Protocol description: SPR (BIAcore), purified scFv over VEGF immobilized on CM5 chip, 35 C
Catalogue of binders with associated pKd
For clarity, pKd is expressed as the negative log10 of concentration in mol/L.

| Binder | pKd |
| --- | --- |
| hAB16 (scFv, Single chain format; not shown: HA-His6 tag at C-terminus) scFv: EVQLVQSGGGVVQPGGSLRLSCAASGYTFTNYGMNWIRQAPGKGLEWVGWINTYTGEPTYAADFKRRVTFSLDTSKSTAYLQLNSLRAEDTAVYYCAKYPYYYGRSHWYFDVWGQGTLVTVSSGGGGSGGGGSGGGGSDIVMTQSPSTLSASPGERATITCNASQSIGSYLAWYQQKPGQAPKVLIYGASNLASGVPSRFSGSRSGTDFTLTISSLQPEDFAVYYCQQYNSTPWTFGGGTKLEIK | 8.80 |
| hAB35 (scFv, Single chain format; not shown: HA-His6 tag at C-terminus) scFv: EVQLVQSGGGVVQPGGSLRLSCAASGYDFTHFGLNWIRQAPGKGPEWVGWINTYTGEPTYAQDFKRRVTFSLDTSKSTAYLQLNSLRAEDTAVYYCAKYPYYYGRSHWYFDVWGQGTLVTVSSGGGGSGGGGSGGGGSDIVMTQSPSTLSASPGERATITCNASQSIGSYLAWYQQKPGQAPKVLIYGASNLASGVPSRFSGSRSGTDFTLTISSLQPEDFAVYYCQQYNSTPWTFGGGTKLEIK | 9.15 |
| hAB15 (scFv, Single chain format; not shown: HA-His6 tag at C-terminus) scFv: EVQLVQSGGGVVQPGGSLRLSCAASGYTFTNYGMNWIRQAPGKGLEWVGWINTYTGEPTYAADFKRRVTFSLDTSKSTAYLQLNSLRAEDTAVYYCAKYPYYYGRSHWYFDVWGQGTLVTVSSGGGGSGGGGSGGGGSDIVMTQSPSTLSASPGERATITCHASQSISTYLAWYQQKPGQAPRVLIYGASNLASGVPNRFSGSGSGTDFTLTISSLQPEDFAVYYCQQYNSAPWTFGGGTKVEIK | 8.43 |
| hAB7 (scFv, Single chain format; not shown: HA-His6 tag at C-terminus) scFv: EVQLVQSGGGVVQPGGSLRLSCAASGYTFTNYGMNWVRQAPGKGLEWVGWINTYTGEPTYAADFKRRFTFSLDTSKSTAYLQMNSLRAEDTAVYYCAKYPYYYGRSHWYFDVWGQGTLVTVSSGGGGSGGGGSGGGGSDIQMTQSPSSLSASVGDRVTITCSASQDISNYLNWYQQKPGKAPKVLIYFTSSLHSGVPSRFSGSGSGTDFTLTISSLQPEDFATYYCQQYSTVPWTFGQGTKVEIK | 8.96 |

# ---- query binder ----
Asked: Item hAB8 (scFv, Single chain format; not shown: HA-His6 tag at C-terminus) scFv: EVQLVQSGGGVVQPGGSLRLSCAASGYTFTNYGMNWIRQAPGKGLEWVGWINTYTGEPTYAADFKRRVTFSLDTSKSTAYLQLNSLRAEDTAVYYCAKYPYYYGRSHWYFDVWGQGTLVTVSSGGGGSGGGGSGGGGSDIQMTQSPSSLSASVGDRVTITCSASQDISNYLNWYQQKPGKAPKVLIYFTSSLHSGVPSRFSGSGSGTDFTLTISSLQPEDFATYYCQQYSTVPWTFGQGTKVEIK has what recorded pKd?
Given back: 8.96
